Test system: rev protein
Experiment: Saturation filter binding of rev to labelled RNA transcripts
Parameters: species or system HIV-1
Conditions: saturation filter binding of T7 transcripts; read-out: Kd for rev binding
Value Type: Kd

Consider the reported Kd for these substances:
R22: residue A56 is deleted from R20 (GGGAGACCGGAAUUCUGGGCGCAGUGUCAUUGACGCUGCGGUACAGGCA; chemistry not given here) : 1 to 3 nM
R38: stem-loop structure C39 to A56 replaced by the stable loop sequence CUUCGG (GGGAGACCGGAAUUCUGGGCGCUUCGGCGGUACAGA; chemistry not given here) : 1 to 3 nM
R19: transcript containing RRE sequences 33 to 66 (GGGAGACCGGAAUUCUGGGCGCAGUGUCAUUGACGCUGACGGUACAGGCA; unmodified RNA) : 1 to 3 nM

Query :: Quick check: Kd on rev protein, item R35 (GGGAGACCGGAAUUCUGGCGCAGUGUCAUUGACGCUGCGGUACAGAAUUCCGGCA; chemistry not given here) ?
Result :: 4 nM

Just for reference, patent US5786145A is where these values come from.
